# System: Recombinant human his-tagged IGF 1R extracellular domain protein (human) (UniProt P08069)
# Protocol details: SPR, captured IgG, IGF-1R ECD-his analyte, dissociation pH 6

{"Binder": "VRDN-02512 (antibody, V domains shown) VH: EVQLVQSGGGLVKPGGSLRLSCAASGFTFSSFAMHWVRQAPGKGLEWISVIDTHGATYYADSVKGRFTISRDNAKNSLYLQMNSLRAEDTAVYYCARLGNFYYGMDVWGQGTTVTVSS VL: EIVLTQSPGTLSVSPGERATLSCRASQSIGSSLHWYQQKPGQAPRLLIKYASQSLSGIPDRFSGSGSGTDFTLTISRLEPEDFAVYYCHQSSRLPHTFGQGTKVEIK", "koff": "3.96e-05 s⁻¹"}
{"Binder": "VRDN-02561 (antibody, V domains shown) VH: EVQLVQSGGGLVKPGGSLRLSCAASGFTFSSFHMHWVRQAPGKGLEWISVIDTRGATYYADSVKGRFTISRDNAKNSLYLQMNSLRAEDTAVYYCARLGNFYYGHDVWGQGTTVTVSS VL: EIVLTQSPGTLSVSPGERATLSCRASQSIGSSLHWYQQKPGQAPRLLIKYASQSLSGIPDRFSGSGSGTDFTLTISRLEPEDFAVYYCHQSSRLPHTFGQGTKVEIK", "koff": "0.000539 s⁻¹"}
{"Binder": "VRDN-02570 (antibody, V domains shown) VH: EVQLVQSGGGLVKPGGSLRLSCAASGFTFSSFHMHWVRQAPGKGLEWISVIDTRGATYYADSVKGRFTISRDNAKNSLYLQMNSLRAEDTAVYYCARLGNFYYGHDVWGQGTTVTVSS VL: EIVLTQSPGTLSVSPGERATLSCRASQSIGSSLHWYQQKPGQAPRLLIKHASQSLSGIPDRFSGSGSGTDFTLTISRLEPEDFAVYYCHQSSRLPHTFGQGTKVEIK", "koff": "0.000376 s⁻¹"}
{"Binder": "VRDN-02547 (antibody, V domains shown) VH: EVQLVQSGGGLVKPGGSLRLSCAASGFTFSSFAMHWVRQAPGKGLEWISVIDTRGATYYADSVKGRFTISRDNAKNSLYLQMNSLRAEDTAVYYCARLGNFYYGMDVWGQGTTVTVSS VL: EIVLTQSPGTLSVSPGERATLSCRASQSIGSSLHWYQQKPGQAPRLLIKYASQSLSGIPDRFSGSGSGTDFTLTISRLEPEDFAVYYCHQHSRLPHTFGQGTKVEIK", "koff": "1e-06 s⁻¹"}
{"Binder": "VRDN-02552 (antibody, V domains shown) VH: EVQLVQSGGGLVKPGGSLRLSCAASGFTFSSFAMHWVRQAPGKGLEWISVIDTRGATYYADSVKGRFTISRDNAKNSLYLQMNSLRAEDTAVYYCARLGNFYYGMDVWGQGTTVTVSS VL: EIVLTQSPGTLSVSPGERATLSCRASQSIGSSLHWYQQKPGQAPRLLIKYASQSLSGIPDRFSGSGSGTDFTLTISRLEPEDFAVYYCHQSSRLPHHFGQGTKVEIK", "koff": "1e-06 s⁻¹"}
